protocol_summary: Plasma stability, human plasma
Type: in vitro ADME
setup_conditions: Table 2A, 37 °C, read-out: Plasma Stability Human t1/2
recorded_metric: half-life

Fill in half-life for each of the 3 compounds listed.
1. [2H]C([2H])([2H])N(CC(=O)[O-])C(=N)NC(=O)CCCCCCCCCCC.[Na+]
2. [2H]C([2H])([2H])N(CC(=O)[O-])C(=N)NC(=O)CCCCCCC.[Na+]
3. Cl.[H]/N=C(/NC(=O)CCCCCCC/C=C\CCCCCCCC)N(CC(=O)OCCCCCCC)C([2H])([2H])[2H]

Reply:
1: > 180 min; 2: > 180 min; 3: < 5 min

Task item: Would you mind telling me what half-life value was observed for `[2H]C([2H])([2H])N(CC(=O)[O-])C(=N)NC(=O)CCCCCCCCCC.[Na+]` ?
Reply: > 180 min

====

protocol_summary: Plasma stability, mouse plasma
Assay type: in vitro ADME
setup_conditions: Table 2C, macrocycles, 37 °C, read-out: Plasma Stability Mouse t1/2
Where a name gives a salt, the structure may show the parent alone.
Please mark T if the recorded half-life is equal to or greater than 3 min, and F if it falls below.

Cl.[2H]C([2H])([2H])N1CC(=O)O[C@@H](C)CCCCCCCCCC(=O)NC1=N [Compound PP] :: F
Cl.[2H]C([2H])([2H])N1CC(=O)OC(C)CCCCCCCCCC(=O)NC1=N (stereo not drawn) [Compound K] :: F
[2H]C([2H])([2H])N1CC(=O)O[C@H](C)CCCCCCCCCC(=O)NC1=N [Compound Q, Hydrochloride] :: F
[2H]C([2H])([2H])N1CC(=O)OCCCCCCCCC(=O)NC1=N [Compound DD] :: F

Task item: Please tell me: is the molecule [2H]C([2H])([2H])N1CC(=O)OC(C)(C)CCCCCCCCCC(=O)NC1=N [Compound U] at or over 3 min in terms of half-life?
Reply: T

====

protocol_summary: Plasma stability, human plasma
Format: in vitro ADME
setup_conditions: Table 2A, 37 °C, read-out: Plasma Stability Human t1/2
recorded_metric: half-life

[2H]C([2H])([2H])N(CC(=O)[O-])C(=N)NC(=O)CCCCCC.[Na+] :: > 180 min
[2H]C([2H])([2H])N(CCO)C(=N)NC(=O)CCCCCCCCCC :: > 180 min
[2H]C([2H])([2H])N(CC(=O)[O-])C(=N)NC(=O)CCCCC/C=C\CCCCCCCCCC.[Li+] :: > 180 min
[2H]C([2H])([2H])N(CC(=O)[O-])C(=N)NC(=O)CCCCCCCCCC.[K+] :: > 180 min
Cl.[2H]C([2H])([2H])N(CC(=O)OCC)C(=N)NC(=O)CCCCCCCCCC :: < 5 min

For each of the items listed, what is its half-life?
1. [2H]C([2H])([2H])N(CC(=O)OCC)C(=N)NC(=O)CCCCCCCCCCCC
2. [2H]C([2H])([2H])N(CC(=O)[O-])C(=N)NC(=O)CCCCCCCCCC/C=C\CCCCC.[Na+]
3. [2H]C([2H])([2H])N(CC(=O)[O-])C(=N)NC(=O)CCCCCCCC.[Li+]

Reply:
< 5 min
> 180 min
> 180 min

====

I'd be grateful if you could share measured half-life at 10 μM for these entries.
protocol_summary: Liver microsome stability, human
Assay type: in vitro ADME
setup_conditions: liver microsomes, pH 7.4, Table 2B, read-out: Microsome Stability Human t1/2

[2H]C([2H])([2H])N(CC(=O)[O-])C(=N)NC(=O)CCCCCCCCCCCO.[Na+] :: > 90 min

Batch request: half-life at 10 μM per item, same order as input.
1. [2H]C([2H])([2H])N(CC(=O)O)C(=N)NC(=O)CCCCCCCCCCO
2. [2H]C([2H])([2H])N(CC(=O)OC(C)(C)C(C)C)C(=N)NC(=O)CCCCCCCCCC
3. [2H]C([2H])([2H])N(CC(=O)OC(C)(C)C(C)(C)O)C(=N)NC(=O)CCCCCCCCCC
4. [2H]C([2H])([2H])N(CC(=O)OC(C)(C)C(C)(C)O)C(=N)NC(=O)CCCCCC
5. Cl.[2H]C([2H])([2H])N(CC(=O)OC(C)(C)C)C(=N)NC(=O)CCCCCCCCCC
6. [2H]C([2H])([2H])N(CC(=O)OC(C)(C)C(C)C)C(=N)NC(=O)CCCCCC
7. [2H]C([2H])([2H])N(CC(=O)[O-])C(=N)NC(=O)CCCCCCCCCC(C)O.[Na+] (stereo not drawn)
8. [2H]C([2H])([2H])N(CC(=O)[O-])C(=N)NC(=O)CCCCCCCCCO.[Na+]

Reply:
["> 90 min", "< 5 min", "< 5 min", "< 5 min", "9 min", "< 5 min", "> 90 min", "> 90 min"]

====

Kindly state half-life at 10 μM for each of the entries shown.
protocol_summary: Liver microsome stability, human
Assay type: in vitro ADME
setup_conditions: liver microsomes, pH 7.4, Table 2A, read-out: Microsome Stability Human t1/2

Some compounds with recorded half-life at 10 μM:
[2H]C([2H])([2H])N(CC(=O)O)C(=NC(=O)OC(C)(C)C)NC(=O)CCCCCCCCCC :: > 3 h
[2H]C([2H])([2H])N(CC(=O)[O-])C(=N)NC(=O)CCCCC/C=C\CCCCCCCCCC.[Na+] :: 1.13 h
Cl.[2H]C([2H])([2H])N(CC(=O)OCC)C(=N)NC(=O)CCCCCCCCCC :: < 0.0833 h
[2H]C([2H])([2H])N(CC(=O)[O-])C(=N)NC(=O)CCCCCCCCCC.[K+] :: 1.2 h
[2H]C([2H])([2H])N(CC(=O)[O-])C(=N)NC(=O)CCCCC/C=C\CCCCCCCCCC.[Li+] :: 1.3 h
[2H]C([2H])([2H])N(CC(=O)[O-])C(=N)NC(=O)CCCCCCCCCCCC.[Na+] :: 0.983 h
Cl.[2H]C([2H])([2H])N(CC(=O)OC(C)(C)C)C(=N)NC(=O)CCCCCCCCCC :: 0.15 h

In the following, a different compound is considered.
Task item: Item `[2H]C([2H])([2H])N(CC(=O)[O-])C(=N)NC(=O)CCCCCCCC.[Na+]` has what recorded half-life at 10 μM?
Reply: 1.7 h

====

protocol_summary: Plasma stability, human plasma
Assay type: in vitro ADME
setup_conditions: Table 2B, 37 °C, read-out: Plasma Stability Human t1/2
recorded_metric: half-life

# count of solved cases: 5
[2H]C([2H])([2H])N(CC(=O)OC(C)(C)C(C)C)C(=N)NC(=O)CCCCCC :: > 3 h
[2H]C([2H])([2H])N(CC(=O)OC(C)(C)C(C)C)C(=N)NC(=O)CCCCCCCCCC :: > 3 h
[2H]C([2H])([2H])N(CC(=O)OC(C)(C)C(C)(C)O)C(=N)NC(=O)CCCCCCCCCC :: < 0.0833 h
[2H]C([2H])([2H])N(CC(=O)[O-])C(=N)NC(=O)CCCCCCCCCCCO.[Na+] :: > 3 h
[2H]C([2H])([2H])N(CC(=O)[O-])C(=N)NC(=O)CCCCCCCCCC(C)O.[Na+] (centres unmarked) :: > 3 h

Please go through the list and note half-life for each compound.
1. [2H]C([2H])([2H])N(CC(=O)OC(C)(C)C(C)(C)O)C(=N)NC(=O)CCCCCC
2. [2H]C([2H])([2H])N(CC(=O)O)C(=N)NC(=O)CCCCCCCCCCO

Reply:
1: < 0.0833 h; 2: > 3 h

Task item: Can you look up the measured half-life of `[2H]C([2H])([2H])N(CC(=O)[O-])C(=N)NC(=O)CCCCCCCCCO.[Na+]` for me?
Reply: > 3 h

====

protocol_summary: Chemical stability in phosphate buffered saline (PBS)
Format: physicochemical
setup_conditions: Table 2A, 50 μM prodrug
Kindly apply the following: fulfilled if Chemical Stability PBS % T0 at 2 hours at 37 °C. is less than 50%, not fulfilled in every other case.

[2H]C([2H])([2H])N(CC(=O)[O-])C(=N)NC(=O)CCCCCCCC.[Na+] :: not fulfilled
Cl.[2H]C([2H])([2H])N(CC(=O)OCC(C)(C)C)C(=N)NC(=O)CCCCCCCCCC :: not fulfilled
[2H]C([2H])([2H])N(CC(=O)[O-])C(=N)NC(=O)CCCCCC.[Na+] :: not fulfilled

Task item: Lab log: compare recorded Chemical Stability PBS % T0 at 2 hours at 37 °C. with 50%; is it strictly lower for `[2H]C([2H])([2H])N(CC(=O)[O-])C(=N)NC(=O)CCCCCCCCCCCCC.[Li+]` ?
Reply: not fulfilled
